# TESTED TARGET: Intestinal-type alkaline phosphatase (Mus musculus)
# Sequence (P24822 whole entry): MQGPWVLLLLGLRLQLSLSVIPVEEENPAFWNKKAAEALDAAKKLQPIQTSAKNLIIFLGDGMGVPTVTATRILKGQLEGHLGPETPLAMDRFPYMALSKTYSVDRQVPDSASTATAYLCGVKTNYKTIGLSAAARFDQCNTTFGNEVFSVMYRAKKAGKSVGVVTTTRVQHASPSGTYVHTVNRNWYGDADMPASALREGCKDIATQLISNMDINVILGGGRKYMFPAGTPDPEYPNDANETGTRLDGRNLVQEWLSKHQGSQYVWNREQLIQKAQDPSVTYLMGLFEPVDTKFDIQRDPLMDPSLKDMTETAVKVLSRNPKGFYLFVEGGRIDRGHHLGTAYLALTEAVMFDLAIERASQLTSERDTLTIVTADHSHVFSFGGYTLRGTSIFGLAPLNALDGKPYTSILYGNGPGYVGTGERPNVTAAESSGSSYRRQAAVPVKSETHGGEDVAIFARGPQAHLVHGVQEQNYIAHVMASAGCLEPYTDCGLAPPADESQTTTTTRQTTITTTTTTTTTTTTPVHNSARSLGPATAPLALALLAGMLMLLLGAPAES
# TEST METHOD NOTES: PubChem AID 488785
# Assay type: functional
Activity calls are given as the source filed them.
READOUT LABEL: IC50

>>> observed_measurement("C#CCOCCOCCOCCNc1nc(N2CCN(C(=O)CCCCCCCCCCNC(=O)[C@H](CO)n3cc(CCCSC)nn3)CC2)nc(N2CCN(C(=O)CCCCCCCCCCNC(=O)[C@H](CCCN=C(N)N)n3cc(C[C@@H](C)CC)nn3)CC2)n1")
"11500 nM (active)"
>>> observed_measurement("Cc1cc(F)ccc1S(=O)(=O)Nc1ccc(O)c(Sc2nnc[nH]2)c1")
"2300 nM (active)"
>>> observed_measurement("C#CCOCCOCCOCCNc1nc(N2CCN(C(=O)CCCCCCCCCCNC(=O)[C@@H](CCSC)n3cc(CCO)nn3)CC2)nc(N2CCN(C(=O)CCCCCCCCCCNC(=O)[C@H]([C@@H](C)CC)n3cc(CCCCN=C(N)N)nn3)CC2)n1")
"1660 nM (active)"

Consider the record given below.
According to the records, this molecule Oc1ccc(-c2csc(Nc3cccc4ccccc34)n2)cc1O displays IC50 of 1630 nM (active)

---

# TEST METHOD NOTES: Trypanosoma cruzi growth suppression in host cells – NIH3T3 host cells, beta-gal luminescence, confirmation (AID 2044);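 further: intracellular parasites grown in NIH/3T3 mouse fibroblasts as host cells; luminescent beta-galactosidase reporter signal from transgenic T. cruzi replicating inside host cells; inhibitors lower the luminescence signal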
# Format: functional, cell-based
Calls of active or inactive are those of the source.
READOUT LABEL: EC50

>>> observed_measurement("Cc1cc(C(=O)N/N=C/c2cc(Br)cc(Br)c2OC(=O)c2cccc(F)c2)[nH]n1")
"1.01 µM (active)"
>>> observed_measurement("CCn1nnc(NC(=O)c2ccc([N+](=O)[O-])o2)n1")
"0.179 µM (active)"

Fill in EC50 for each of the 6 compounds listed.
1. OCCC1CN(Cc2ccc3nonc3c2)CCN1Cc1ccsc1 (centres undefined)
2. CCCCCCCC[n+]1cccc2c3ccccc3ccc21
3. Cn1c(C(=O)OC(C(=O)NC2CCCCC2)c2ccncc2)cc2sccc21 (centres undefined)
4. CN(C)CCN(C(=O)c1ccc(S(=O)(=O)N2CCc3ccccc32)cc1)c1nc2ccc(F)cc2s1
5. O=C(Nc1ccncc1)c1ccc(Cl)c(Cl)c1
6. Cc1[nH]c2ccc(F)cc2c1CCN(Cc1cccnc1)C(S)=Nc1ccccc1

Result string:
["0.452 µM (active)", "0.161 µM (active)", "> 30 µM (not active)", "< 0.1 µM (active)", "0.472 µM (active)", "0.953 µM (active)"]

Fill in EC50 for each of the 2 compounds listed.
1. Cc1ccc(C)c(NC(=S)N(CCc2nc3cc(C)c(C)cc3[nH]2)Cc2cccnc2)c1
2. O=C(c1ccc([N+](=O)[O-])o1)N1CCN(c2nc3c(F)cc(F)cc3s2)CC1

Result string:
1: 0.813 µM (active); 2: 0.466 µM (active)

Fill in EC50 for each of the 4 compounds listed.
1. O=S(=O)(c1ccc(-c2csc(-c3cccnc3)n2)cc1)N1CCCCC1
2. CN(C)CC#CCC(O)(c1ccccc1)C1CCCC1 (centres undefined)
3. CCn1c2ccccc2c2cc(CN3CCN(Cc4cc(OC)ccc4O)CC3)ccc21
4. CCN(CC)S(=O)(=O)c1ccc2oc(SCC(=O)Nc3cc(C)on3)nc2c1

Result string:
1.89 µM (active)
< 0.1 µM (active)
1.21 µM (active)
> 30 µM (not active)
